Examples of compounds with documented pest or weed control at 100 ppm follow.
Tested on: Pyricularia orzae
assay-text: whole plant or invertebrate
Assay type: in vivo, Pyricularia orzae (rice plant, Chukyo Asahi)
conditions: in Oryza sativa, 120 h, read-out: Protective value
measured-metric: pest or weed control at 100 ppm (%)

O=[N+]([O-])c1cc(C(F)(F)F)cc([N+](=O)[O-])c1Nc1c(Cl)cncc1Cl [compound 15]	100
CSc1c(C(F)(F)F)cc([N+](=O)[O-])c(Nc2ncc(C(F)(F)F)cc2Cl)c1[N+](=O)[O-] [compound 45]	100
Cc1cc(Nc2c([N+](=O)[O-])cc(C(F)(F)F)c(Cl)c2[N+](=O)[O-])ncc1Br [compound 10]	86
O=[N+]([O-])c1cc(C(F)(F)F)cc([N+](=O)[O-])c1Nc1ncc(C(F)(F)F)cc1Cl [Compound No. 2]	100
CCOc1c(C(F)(F)F)cc([N+](=O)[O-])c(Nc2ncc(C(F)(F)F)cc2Cl)c1[N+](=O)[O-] [compound 40]	100
Cc1nc(Nc2c([N+](=O)[O-])cc(C(F)(F)F)c(Cl)c2[N+](=O)[O-])c(Cl)cc1Cl [compound 8]	100
O=[N+]([O-])c1cc(C(F)(F)F)cc([N+](=O)[O-])c1Nc1ncc(Cl)cc1C(F)(F)F [compound 27]	100
O=[N+]([O-])c1cc(C(F)(F)F)c(Cl)c([N+](=O)[O-])c1Nc1ccc(Cl)nc1Cl [compound 14]	100
O=[N+]([O-])c1cc(C(F)(F)F)cc([N+](=O)[O-])c1Nc1nc(Cl)c(Br)cc1C(F)(F)F [compound 26]	100
O=[N+]([O-])c1cc(C(F)(F)F)cc([N+](=O)[O-])c1Nc1ncc(Br)cc1C(F)(F)F [compound 28]	100
Cc1nc(Nc2c([N+](=O)[O-])cc(C(F)(F)F)cc2[N+](=O)[O-])c(Cl)c(C)c1Cl [compound 9]	83
O=[N+]([O-])c1cc(C(F)(F)F)cc([N+](=O)[O-])c1Nc1ncccc1C(F)(F)F [compound 37]	100
CCc1nc(Nc2c([N+](=O)[O-])cc(C(F)(F)F)cc2[N+](=O)[O-])ccc1Br [compound 24]	90
CC(C)Oc1c(C(F)(F)F)cc([N+](=O)[O-])c(Nc2ncc(C(F)(F)F)cc2Cl)c1[N+](=O)[O-] [compound 42]	95
Cc1nc(Nc2c([N+](=O)[O-])cc(C(F)(F)F)c(Cl)c2[N+](=O)[O-])c(Cl)c(C)c1Cl [compound 11]	84

----------
Examples of compounds with documented pest or weed control at 100 ppm follow.
Test system: Pyricularia orzae
assay-text: whole plant or invertebrate
Assay type: in vivo, Pyricularia orzae (rice plant, Chukyo Asahi)
conditions: in Oryza sativa, 120 h, read-out: Protective value
measured-metric: pest or weed control at 100 ppm (%)

O=[N+]([O-])c1cc(C(F)(F)F)c(Cl)c([N+](=O)[O-])c1Nc1ccc(C(F)(F)F)cn1	100
CCCOc1c(C(F)(F)F)cc([N+](=O)[O-])c(Nc2ncc(C(F)(F)F)cc2Cl)c1[N+](=O)[O-]	95
O=[N+]([O-])c1cc(C(F)(F)F)c(Cl)c([N+](=O)[O-])c1Nc1ccc(Cl)cn1	100
O=[N+]([O-])c1cc(C(F)(F)F)c(Cl)c([N+](=O)[O-])c1Nc1ncc(Br)cc1Cl	100
O=[N+]([O-])c1cc(C(F)(F)F)c(Cl)c([N+](=O)[O-])c1Nc1ncc(Cl)cc1C(F)(F)F	100
O=[N+]([O-])c1cc(C(F)(F)F)cc([N+](=O)[O-])c1Nc1ccc(Cl)cn1	91
CCSc1c(C(F)(F)F)cc([N+](=O)[O-])c(Nc2ncc(C(F)(F)F)cc2Cl)c1[N+](=O)[O-]	95
O=[N+]([O-])c1cc(C(F)(F)F)c(F)c([N+](=O)[O-])c1Nc1ncc(C(F)(F)F)cc1Cl	100

Measured values drawn from patent US4331670A for this set.
